# System Under Test: TEAD1 TAZ (amino acids 13-57) (Homo sapiens, UniProt P28347)
# Sequence (P28347 167-426 limits assumed): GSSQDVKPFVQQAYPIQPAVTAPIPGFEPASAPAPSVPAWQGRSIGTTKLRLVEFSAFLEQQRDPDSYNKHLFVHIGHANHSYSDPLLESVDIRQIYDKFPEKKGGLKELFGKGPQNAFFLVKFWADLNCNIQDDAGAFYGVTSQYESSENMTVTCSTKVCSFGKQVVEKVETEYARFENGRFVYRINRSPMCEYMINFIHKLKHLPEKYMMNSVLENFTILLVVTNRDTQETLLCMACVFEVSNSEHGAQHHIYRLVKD
# Measurement Notes: TEAD1-TAZ HTRF (TR-FRET) protein-protein interaction assay
# Condition Details: TEAD1-TAZ HTRF, TR-FRET 665 nm/615 nm; read-out: TEAD1 TAZ HTRF combined: EC50
Observation Type: EC50 (µM)

Use these answered entries as a reference point.
Give a short answer stating reported EC50 for "O=C(c1c(-c2ncco2)nn2c(=O)cc(-c3ccc(C4CCCCC4)cc3)[nH]c12)N1CC(CF)C1" .
0.07

Give a short answer stating reported EC50 for "O=C(c1c(-c2cnccn2)nn2c(=O)cc(-c3ccc(C4CCCCC4)c(F)c3)[nH]c12)N1CC(CF)C1" .
0.07

[A] O=C(c1c(-c2cnco2)nn2c(=O)cc(-c3ccc(C4CCCCC4)cc3)[nH]c12)N1CC(CF)C1
[B] Cc1nccnc1-c1nn2c(=O)cc(-c3ccc(C4CCCCC4)c(F)c3)[nH]c2c1C(=O)N1CC(CF)C1
// max by EC50 over [ A , B ] Respond using the label that marks the chosen record.
A

---

# System Under Test: TEAD1 YAP50-100 (Homo sapiens, UniProt P28347)
# Sequence (P28347 167-426 limits assumed): as above
# Measurement Notes: TEAD1-YAP HTRF (TR-FRET) protein-protein interaction assay
# Condition Details: TEAD1, YAP peptide 50-100, HTRF; read-out: TEAD1 YAP50-100 HTRF combined: EC50
Observation Type: EC50 (nM)

Use these answered entries as a reference point.
Give a short answer stating reported EC50 for CC(CO)c1nn2c(=O)cc(-c3ccc(C4CCCCC4)cc3)[nH]c2c1C(=O)N1CC[C@@H](C#N)C1 (single isomer, unassigned) [Final product obtained using Enantiomer A from Step 4, Example 54] .
130

Give a short answer stating reported EC50 for O=C(c1c(-c2nccc(C(F)(F)F)n2)nn2c(=O)cc(-c3ccc(C4CCCCC4)cc3)[nH]c12)N1CC(CF)C1 [Compound 11] .
70

Give a short answer stating reported EC50 for O=C(c1c(-c2ncccn2)nn2c(=O)cc(-c3ccc(C4CCCCC4)cc3)[nH]c12)N1CC(CF)C1 [Compound 15] .
30

[a] C[C@@H]1[C@H](CF)CN1C(=O)c1c(C(=O)N(C)C)nn2c(=O)cc(-c3ccc(C4CCCCC4)cc3)[nH]c12 [Compound 6]
[b] [2H]C1([2H])C([2H])([2H])C([2H])([2H])C([2H])(c2ccc(-c3cc(=O)n4nc(-c5nccnc5C)c(C(=O)N5C[C@H](CF)[C@@H]5C)c4[nH]3)cc2)C([2H])([2H])C1([2H])[2H] [Compound 72]
Hi there, can you help? I need to know whether a or b has lower measured EC50. Respond using the label that marks the chosen record.
b

---

# System Under Test: TEAD4 TAZ (amino acids 13-57) (Homo sapiens)
# Sequence (Q15561 217-434 limits assumed): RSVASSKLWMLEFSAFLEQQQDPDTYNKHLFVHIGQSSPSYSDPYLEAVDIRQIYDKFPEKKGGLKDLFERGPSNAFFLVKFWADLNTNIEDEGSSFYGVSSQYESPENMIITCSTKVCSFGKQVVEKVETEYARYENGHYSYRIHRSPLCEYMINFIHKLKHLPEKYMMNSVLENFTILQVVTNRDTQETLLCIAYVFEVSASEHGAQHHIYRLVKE
# Measurement Notes: TEAD4-TAZ HTRF (TR-FRET) protein-protein interaction assay
# Format: binding
# Condition Details: TEAD4, TAZ peptide, HTRF
Observation Type: TEAD4 TAZ HTRF combined: Max % Inhibition (%)

Use these answered entries as a reference point.
Give a short answer stating reported TEAD4 TAZ HTRF combined: Max % Inhibition for CC1CCN1C(=O)c1nn2c(=O)cc(-c3ccc(C4CCCCC4)cc3)[nH]c2c1C(=O)N1CC(CF)C1 (single isomer, unassigned) [Enantiomer A, Example 33] .
41.5

Give a short answer stating reported TEAD4 TAZ HTRF combined: Max % Inhibition for "Cn1cnc(-c2nn3c(=O)cc(-c4ccc(C5CCCCC5)cc4)[nH]c3c2C(=O)N2CC(CF)C2)c1" .
31.0

[P] [2H]C1([2H])C([2H])([2H])C([2H])([2H])C([2H])(c2ccc(-c3cc(=O)n4nc(-c5nccnc5C)c(C(=O)N5C[C@H](CF)[C@@H]5C)c4[nH]3)cc2)C([2H])([2H])C1([2H])[2H]
[Q] Cc1nccnc1-c1nn2c(=O)cc(-c3ccc(CC4CCCC4)cc3)[nH]c2c1C(=O)N1C[C@@H](CF)[C@H]1C (single isomer, unassigned) [Isomer A, Example 42]
[R] O=C(c1nn2c(=O)cc(-c3ccc(C4CCCCC4)cc3)[nH]c2c1C(=O)N1CC(CF)C1)N1CCCC1
Exam item: list the entries in increasing order of TEAD4 TAZ HTRF combined: Max % Inhibition. Write the labels out in the order the request specifies.
Q, R, P
